Origin of the recorded values: patent US20160137639A1

targetUnderTest: human RORγ (Homo sapiens, UniProt P51449)
Construct: human, NM_005060.3 and from Ser253 to Lys518; expressed in transfected cells; host or cells: CHO cells (transient co-transfection with pG5-Luc reporter)
Sequence (P51449 253-518): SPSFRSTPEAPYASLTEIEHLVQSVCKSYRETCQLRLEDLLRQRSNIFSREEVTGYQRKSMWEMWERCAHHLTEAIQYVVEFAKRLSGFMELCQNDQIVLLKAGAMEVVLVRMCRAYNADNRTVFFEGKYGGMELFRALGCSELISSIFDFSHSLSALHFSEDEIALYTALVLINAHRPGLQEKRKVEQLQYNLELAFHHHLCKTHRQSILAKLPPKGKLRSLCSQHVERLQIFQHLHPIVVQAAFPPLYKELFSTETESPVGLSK
experimentalProtocol: Luciferase reporter gene assay of inhibitory effect against RORγ transcriptional activity (GAL4-hRORγ plasmid in CHO cells)
Type: cell-based
setupConditions: read-out: LUC EC50 (μM) hRORg
resultType: EC50

Example entries and their recorded answers appear below.
| compound | EC50 |
| --- | --- |
| CCn1c(CCC(=O)Nc2ccc(C)cc2C)nnc1CCC(C)(C)C | > 3 µM |
| Cc1ccc(NC(=O)C[C@@H](CCO)c2nnc(-c3cc(CC(C)C)on3)n2C2CC2)c(C)c1 | > 3 µM |

Please go through the list and note EC50 for each compound.
1. Cc1cc(C(N)=O)ccc1NC(=O)CCc1nnc(CCC(C)C)n1C1CC1
2. Cc1ccc(NC(=O)C[C@H](CCO)c2nnc(CCCC(C)C)n2C2CC2)c(C)c1
3. Cc1ccc(NC(=O)[C@H]2CC(=O)N(C)[C@@H]2c2nnc(CCCC(C)(C)C)n2C2CC2)c(C)c1
4. Cc1ccc(NC(=O)CC(CCOC(=O)N(C)C)c2nnc([C@H]3C[C@@H](CC(C)C)C3)n2C2CC2)c(C)c1 (mixture of isomers)
5. Cc1cccc(NC(=O)CCc2nnc(CCC(C)C)n2C2CC2)c1C

OUT:
> 3 µM
< 3 µM
< 3 µM
< 3 µM
> 3 µM

Here are 2 compounds. What values of EC50 were reported for them?
1. CCn1c(CCC(=O)NCc2cccc(C)c2)nnc1CCC1CCCCC1
2. Cc1ccc(NC(=O)C[C@@H](C[C@H](O)CO)c2nnc(CCCC(C)C)n2C2CC2)c(C)c1

OUT:
1: > 3 µM; 2: > 3 µM

====

targetUnderTest: human RORγ (Homo sapiens)
Construct: human, NM_005060.3 and from Ser253 to Lys518; expressed in transfected cells; host or cells: CHO cells (transient co-transfection with pG5-Luc reporter)
Sequence (P51449 253-518): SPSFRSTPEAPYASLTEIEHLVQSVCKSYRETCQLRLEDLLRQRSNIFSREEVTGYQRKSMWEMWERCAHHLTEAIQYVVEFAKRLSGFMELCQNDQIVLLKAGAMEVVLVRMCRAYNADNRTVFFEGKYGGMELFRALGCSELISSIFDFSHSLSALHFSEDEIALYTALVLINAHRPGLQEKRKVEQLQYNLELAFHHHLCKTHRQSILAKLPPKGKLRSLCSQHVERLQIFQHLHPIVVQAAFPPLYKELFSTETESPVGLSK
experimentalProtocol: Luciferase reporter gene assay of inhibitory effect against RORγ transcriptional activity (GAL4-hRORγ plasmid in CHO cells)
Type: cell-based
setupConditions: read-out: LUC EC50 (μM) hRORg
resultType: EC50

| molecule | resultValue |
| --- | --- |
| Cc1c(Cl)cccc1NC(=O)CCc1nnc(CCC2CCCN(C(=O)OC(C)(C)C)C2)n1C1CC1 (racemic) | < 3 µM |
| CC(=O)N1C[C@H](C(=O)Nc2ccc(C)cc2C)[C@@H](c2nnc(-c3ccc(C(C)C)cc3)n2C2CC2)C1 (racemic) [Example F-319] | < 3 µM |
| CC(=O)NCC(CC(=O)Nc1ccc(C)cc1C)c1nnc(CCCC(C)C)n1C1CC1 (racemic) | > 3 µM |
| Cc1c(Cl)cccc1NC(=O)CCc1nnc(CCCC(C)C)n1C1CC1 | < 3 µM |
| Cc1ccc(NC(=O)C[C@H](CCC(=O)O)c2noc(-c3noc(CC(C)C)c3C)c2C2CC2)c(Cl)c1 | < 3 µM |
| Cc1ccc(C)c(NC(=O)CCc2nnc(CCC(C)C)n2C2CC2)c1 | > 3 µM |
| Cc1ccc(NC(=O)C[C@@H](c2nnc(CCCC(C)(C)C)n2C2CC2)N2CCCC2=O)c(C)c1 | < 3 µM |
| CC(C)CCc1nnc(CCC(=O)Nc2ccccc2C(C)C)n1C1CC1 | > 3 µM |

Now turn to the next molecule.
IN: Name the recorded EC50 for `Cc1ccc(NC(=O)CCc2nnc(CCC3(C)CCCCC3)n2C2CC2)c(C)c1` .
OUT: < 3 µM

====

For each record, write down the corresponding pEC50.
targetUnderTest: human RORγ (Homo sapiens)
Construct: human, NM_005060.3 and from Ser253 to Lys518; expressed in transfected cells; host or cells: CHO cells (transient co-transfection with pG5-Luc reporter)
experimentalProtocol: Luciferase reporter gene assay of inhibitory effect against RORγ transcriptional activity (GAL4-hRORγ plasmid in CHO cells)
Type: cell-based
setupConditions: read-out: LUC EC50 hRORg
pEC50: −log10 of the molar value.

The examples below pair each entry with its known result.
| compound | pEC50 |
| --- | --- |
| Cc1ccc(NC(=O)[C@H]2CC(N(C)C)C[C@@H]2c2nnc([C@H]3C[C@@H](CC(C)C)C3)n2C2CC2)c(C)c1 (single isomer, unassigned) | > 5.52 |
| CC(C)(C)Cc1cc(-c2onc([C@H](CCC(=O)O)CC(=O)Nc3ccc(Cl)cc3Cl)c2C2CC2)no1 | > 5.52 |

Next item in the queue.
IN: Could you share which pEC50 value was measured for `CC(=O)N1C[C@H](C(=O)Nc2ccc(Cl)cc2C)[C@@H](c2nnc(C3CC4(CCC(F)(F)CC4)C3)n2C2CC2)C1` ?
OUT: > 5.52

====

targetUnderTest: human RORγ (Homo sapiens, UniProt P51449)
Construct: human, NM_005060.3 and from Ser253 to Lys518; expressed in transfected cells; host or cells: CHO cells (transient co-transfection with pG5-Luc reporter)
experimentalProtocol: Luciferase reporter gene assay of inhibitory effect against RORγ transcriptional activity (GAL4-hRORγ plasmid in CHO cells)
Type: cell-based
setupConditions: read-out: LUC EC50 hRORg
pEC50: −log10 of the molar value.
resultType: pEC50

Hey, quick one: what's pEC50 for each of these?
1. CCN(CC)CC(=O)N1C[C@H](C(=O)Nc2ccc(C)cc2C)[C@@H](c2nnc([C@H]3C[C@@H](CC(C)C)C3)n2C2CC2)C1
2. CCC(C)(C)C[C@H]1C[C@@H](c2onc([C@@H](CCC(=O)O)CC(=O)Nc3ccc(C)nc3C)c2C(F)(F)F)C1

OUT:
< 5.52
> 5.52

I'm hoping you can list pEC50 for every molecule here, please.
1. CCO[C@@H](CC(=O)Nc1ccc(C)cc1C)c1nnc(-c2cc(CC(C)C)on2)n1C1CC1
2. CCOC(=O)CCc1c(CCC(=O)Nc2ccc(C)cc2C)noc1[C@H]1C[C@@H](CC(C)C)C1
3. CC(=O)N1C[C@H](C(=O)Nc2ccc(C)cc2C)[C@@H](c2nnc(-c3cc(CCC(C)C)on3)n2C2CC2)C1
4. Cc1ccc(NC(=O)[C@@H]2CC(C)(O)C[C@H]2c2nnc([C@H]3C[C@@H](CC(C)C)C3)n2C2CC2)c(C)c1 (single isomer, unassigned) [Example F-563]

OUT:
1. > 5.52
2. < 5.52
3. > 5.52
4. > 5.52

Would you mind giving pEC50 for every molecule in the list below?
1. C=C1C[C@H](C(=O)Nc2ccc(C)cc2C)[C@@H](c2nnc([C@H]3C[C@@H](CC(C)C)C3)n2C2CC2)C1 (racemic)
2. Cc1ccc(NC(=O)C[C@H](CCO)c2nnc([C@H]3C[C@@H](CC(C)(C)C)C3)n2C2CC2)c(C)c1
3. Cc1ccc(NC(=O)[C@H]2CN(C)CC[C@@H]2c2nnc([C@H]3C[C@@H](CC(C)C)C3)n2C2CC2)c(C)c1 (racemic)
4. Cc1ccc(NC(=O)[C@H](CCC(=O)O)Cc2noc([C@H]3C[C@@H](CC(C)(C)C)C3)c2C2CC2)c(Cl)c1
5. Cc1ccc(NC(=O)C[C@H](OCC(F)(F)F)c2nnc(-c3cc(CC(C)C)on3)n2C2CC2)c(C)c1
6. Cc1ccc(NC(=O)C[C@H](CCO)c2nnc(-c3cc(CC(C)(C)C)on3)n2C2CC2)c(C)c1
7. Cc1ccc(NC(=O)CCc2noc(C3(CO)CC(CC(C)(C)C)C3)c2C2CC2)c(Cl)c1 (mixture of isomers)
8. Cc1ccc(NC(=O)CCc2noc(C(F)(F)c3cc(C(C)(C)C)no3)c2C2CC2)c(Cl)c1

OUT:
1. > 5.52
2. > 5.52
3. > 5.52
4. > 5.52
5. > 5.52
6. > 5.52
7. > 5.52
8. > 5.52
